assay: Inhibition of mouse liver sialidase
assay-endpoint: pIC50
// pIC50 here means minus log10 of the molar concentration (mol/L)

Note pIC50 for the compound shown: `O=C(O)[C@H]1O[C@@H](Oc2c(O)c(O[C@@H]3O[C@H](C(=O)O)[C@@H](O)[C@H](O)[C@H]3O)c3oc(-c4ccc(O)cc4)cc(=O)c3c2O)[C@H](O)[C@@H](O)[C@@H]1O`
4.40
